Measured IC50 values are reported for all entries that follow.
Target: human TLR7 (Homo sapiens)
Construct: host or cells: HEK-Blue cells (HEK293-derived reporter line)
Sequence (Q9NYK1 27-1049): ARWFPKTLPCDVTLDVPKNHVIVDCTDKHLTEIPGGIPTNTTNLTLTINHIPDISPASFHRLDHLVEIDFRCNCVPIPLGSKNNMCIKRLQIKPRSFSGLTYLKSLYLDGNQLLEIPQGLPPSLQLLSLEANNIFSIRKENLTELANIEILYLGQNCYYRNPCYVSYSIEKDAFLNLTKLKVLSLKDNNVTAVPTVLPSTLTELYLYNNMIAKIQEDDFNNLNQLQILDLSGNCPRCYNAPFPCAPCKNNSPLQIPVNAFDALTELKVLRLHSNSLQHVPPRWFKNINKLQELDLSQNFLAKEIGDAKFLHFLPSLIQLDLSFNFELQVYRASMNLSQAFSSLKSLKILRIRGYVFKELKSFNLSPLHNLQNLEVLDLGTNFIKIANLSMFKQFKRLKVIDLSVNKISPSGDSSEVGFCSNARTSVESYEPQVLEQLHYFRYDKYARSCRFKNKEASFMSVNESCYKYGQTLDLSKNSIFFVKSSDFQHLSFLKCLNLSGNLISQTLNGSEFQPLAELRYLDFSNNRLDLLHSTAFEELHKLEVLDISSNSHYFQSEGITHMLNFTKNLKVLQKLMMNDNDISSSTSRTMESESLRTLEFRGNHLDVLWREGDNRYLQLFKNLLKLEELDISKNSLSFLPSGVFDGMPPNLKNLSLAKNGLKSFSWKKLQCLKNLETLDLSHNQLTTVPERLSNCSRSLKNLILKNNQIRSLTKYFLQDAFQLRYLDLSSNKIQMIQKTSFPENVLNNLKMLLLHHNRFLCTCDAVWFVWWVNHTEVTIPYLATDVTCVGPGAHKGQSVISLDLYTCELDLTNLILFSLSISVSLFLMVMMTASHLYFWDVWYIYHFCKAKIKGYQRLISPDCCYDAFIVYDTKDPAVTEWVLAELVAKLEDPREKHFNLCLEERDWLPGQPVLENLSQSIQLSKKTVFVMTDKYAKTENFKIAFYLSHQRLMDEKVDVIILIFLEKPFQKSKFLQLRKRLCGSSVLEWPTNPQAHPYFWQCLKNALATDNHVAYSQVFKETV
Assay: TLR7 inhibition reporter assay (HEK-Blue cells, SEAP reporter, gardiquimod stimulation)
Format: cell-based
Settings: HEK-Blue cells overexpressing human TLR7, SEAP reporter, gardiquimod 7.5 μM

| molecule | IC50 |
| --- | --- |
| CNCCN1CCC(c2ccc3[nH]c(-c4ccc5nccn5c4)c(CC(F)F)c3c2)CC1 | < 0.1 µM |
| CCc1c(-c2ccnc3[nH]ccc23)[nH]c2cc(C)c(C3CCN(C4CCN(C(C)C)CC4)CC3)cc12 | 1 to 50 µM |
| CNC(=O)CN1CCC(c2ccc3[nH]c(-c4cc(C)c5ncccc5c4)c(C(C)C)c3c2)CC1 | < 0.1 µM |
| CC(C)c1c(-c2ccnc3[nH]ncc23)[nH]c2ccc(C3CCN(C4CCCNCC4)CC3)cc12 (stereo not shown) | 1 to 50 µM |

###

Molecular target: human TLR9 (Homo sapiens, UniProt Q9NR96)
Construct: host or cells: HEK-Blue cells (HEK293-derived reporter line)
Sequence (Q9NR96 26-1032): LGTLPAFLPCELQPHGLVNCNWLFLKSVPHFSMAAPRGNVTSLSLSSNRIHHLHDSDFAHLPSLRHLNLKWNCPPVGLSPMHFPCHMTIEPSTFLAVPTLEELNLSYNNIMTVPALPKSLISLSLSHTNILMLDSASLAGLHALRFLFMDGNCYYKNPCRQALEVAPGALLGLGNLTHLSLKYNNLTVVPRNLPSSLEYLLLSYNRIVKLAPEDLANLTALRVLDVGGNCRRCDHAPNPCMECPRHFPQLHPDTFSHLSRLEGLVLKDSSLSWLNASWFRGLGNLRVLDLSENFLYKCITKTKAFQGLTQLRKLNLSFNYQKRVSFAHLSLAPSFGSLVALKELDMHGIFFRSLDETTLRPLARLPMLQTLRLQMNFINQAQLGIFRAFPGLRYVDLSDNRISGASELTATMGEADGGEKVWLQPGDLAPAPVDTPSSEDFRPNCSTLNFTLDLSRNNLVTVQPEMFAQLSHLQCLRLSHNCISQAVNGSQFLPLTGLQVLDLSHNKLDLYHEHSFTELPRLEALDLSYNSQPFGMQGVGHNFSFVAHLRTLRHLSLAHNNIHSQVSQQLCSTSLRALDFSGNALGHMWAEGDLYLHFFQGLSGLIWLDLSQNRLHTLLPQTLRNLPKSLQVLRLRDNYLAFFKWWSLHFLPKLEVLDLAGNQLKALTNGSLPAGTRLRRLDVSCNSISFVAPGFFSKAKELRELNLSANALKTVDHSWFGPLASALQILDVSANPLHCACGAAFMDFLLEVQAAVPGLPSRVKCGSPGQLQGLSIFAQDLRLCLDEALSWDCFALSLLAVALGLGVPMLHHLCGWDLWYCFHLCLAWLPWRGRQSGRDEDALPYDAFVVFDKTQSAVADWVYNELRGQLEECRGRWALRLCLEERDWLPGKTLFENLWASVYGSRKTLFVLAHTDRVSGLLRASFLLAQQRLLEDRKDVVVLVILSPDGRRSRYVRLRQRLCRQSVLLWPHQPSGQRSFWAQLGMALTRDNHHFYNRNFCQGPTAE
Test: TLR9 inhibition reporter assay (HEK-Blue cells, SEAP reporter, ODN2006 stimulation)
Assay type: cell-based
Settings: HEK-Blue cells overexpressing human TLR9, SEAP reporter, ODN2006 5 nM
Excerpt: TLR7/8/9 Inhibition Reporter Assays HEK-Blue™-cells (Invivogen) overexpressing human TLR7, TLR8 or TLR9 receptors were used for screening inhibitors of these receptors using an inducible SEAP (secreted embryonic alkaline phosphatase) reporter gene under the control of the IFN-β minimal promoter fused to five NF-κB and AP-1-binding sites. […]
recorded.endpoint: IC50

| compound | result |
| --- | --- |
| CC(C)c1c(-c2cc(C(C)C)c3nccn3c2)[nH]c2ccc(C3CCNCC3)cc12 [Example 260] | 1 to 50 µM |
| CC(C)c1c(-c2cn(C)c3ncccc23)[nH]c2ccc(C3CCN(CCS(N)(=O)=O)CC3)cc12 [Example 783] | 1 to 50 µM |
| Cc1cc(-c2[nH]c3ccc(C4CCN(CCCC(F)(F)F)CC4)cc3c2C(C)C)cn2nnnc12 [Example 963] | 1 to 50 µM |
| CC(C)c1c(-c2ccnc3[nH]ncc23)[nH]c2ccc(C3CCN(Cc4cn(C)cn4)CC3)cc12 [Example 906] | 0.1 to 1 µM |
| CC(C)c1c(-c2ccn3nncc3c2)[nH]c2ccc(C3CCN(C4CCOCC4)CC3)cc12 [Example 701] | 0.1 to 1 µM |
| Cc1c(-c2[nH]c3ccc(C4CCN(C(=O)CN(C)C)CC4)cc3c2C(C)C)c2cccnc2n1C [Example 459] | 1 to 50 µM |
| CC(C)c1c(-c2ccnc3[nH]ncc23)[nH]c2ccc(C3CCN(C(=O)CN4CC[C@H](N(C)C)C4)CC3)cc12 [Example 590] | 0.1 to 1 µM |
| COc1cc(-c2[nH]c3ccc(C4CCNCC4)cc3c2C(C)C)cn2ccnc12 [Example 125] | 0.1 to 1 µM |
| COc1cc(-c2[nH]c3ccc(C4CCN(C(=O)CN(C)C)CC4)cc3c2C(C)C)cc2nccn12 [Example 501] | 0.1 to 1 µM |
| CC(C)c1c(-c2ccnc3[nH]ncc23)[nH]c2ccc(C3CCN(Cc4csc(N)n4)CC3)cc12 [Example 925] | 1 to 50 µM |
| Cc1cn2cc(-c3[nH]c4ccc(C5CCN(C(=O)CN(C)C)CC5)cc4c3C(C)C)cc(C(F)(F)F)c2n1 [Example 511] | 0.1 to 1 µM |
| Cc1ccnc2c1c(-c1[nH]c3ccc(C4CCN(CC(=O)N(C)C)CC4)cc3c1C(C)C)cn2C [Example 285] | 1 to 50 µM |
| Cc1cc2[nH]c(-c3ccnc4[nH]ncc34)c(C(C)C)c2cc1C1CCNCC1 [Example 250] | 0.1 to 1 µM |
| Cc1cc(-c2[nH]c3ccc(C4CCN(C(=O)CCN(C)C)CC4)cc3c2C(C)C)cn2nnnc12 [Example 620] | 1 to 50 µM |
| Cc1c(-c2[nH]c3ccc(C4CCNCC4)cc3c2C(C)C)ccc2c1cnn2C [Example 94] | 1 to 50 µM |
| FC(F)Cc1c(-c2ccc3nccn3c2)[nH]c2ccc(C3CCN(Cc4c[nH]cn4)CC3)cc12 [Example 941] | 0.1 to 1 µM |

###

Molecular target: human TLR9 (Homo sapiens)
Sequence (Q9NR96 26-1032): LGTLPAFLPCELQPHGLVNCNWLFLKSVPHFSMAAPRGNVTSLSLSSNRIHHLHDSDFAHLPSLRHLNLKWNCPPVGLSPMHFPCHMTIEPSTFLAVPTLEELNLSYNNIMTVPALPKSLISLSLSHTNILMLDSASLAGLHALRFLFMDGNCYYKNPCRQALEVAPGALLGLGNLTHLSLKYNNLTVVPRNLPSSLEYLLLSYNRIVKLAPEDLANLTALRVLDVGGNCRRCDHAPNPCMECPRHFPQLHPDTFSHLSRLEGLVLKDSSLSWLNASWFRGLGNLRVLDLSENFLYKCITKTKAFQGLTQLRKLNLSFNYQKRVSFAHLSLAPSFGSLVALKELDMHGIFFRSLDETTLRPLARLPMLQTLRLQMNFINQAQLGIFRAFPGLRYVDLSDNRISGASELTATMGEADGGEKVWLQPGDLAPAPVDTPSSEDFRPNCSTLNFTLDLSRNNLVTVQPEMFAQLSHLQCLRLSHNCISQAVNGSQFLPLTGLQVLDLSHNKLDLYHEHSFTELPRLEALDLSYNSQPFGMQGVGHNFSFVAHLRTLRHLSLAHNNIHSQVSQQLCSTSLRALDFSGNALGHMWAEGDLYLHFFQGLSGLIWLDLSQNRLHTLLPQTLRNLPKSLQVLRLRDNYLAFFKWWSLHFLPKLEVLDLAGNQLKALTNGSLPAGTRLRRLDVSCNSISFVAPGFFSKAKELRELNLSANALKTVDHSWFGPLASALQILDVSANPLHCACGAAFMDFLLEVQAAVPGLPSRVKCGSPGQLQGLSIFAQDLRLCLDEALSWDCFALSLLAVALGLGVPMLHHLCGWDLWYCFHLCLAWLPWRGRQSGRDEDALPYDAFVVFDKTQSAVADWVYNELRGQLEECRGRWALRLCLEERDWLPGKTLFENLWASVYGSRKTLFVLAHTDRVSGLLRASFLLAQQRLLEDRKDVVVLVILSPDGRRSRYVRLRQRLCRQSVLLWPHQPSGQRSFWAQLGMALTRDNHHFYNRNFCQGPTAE
Experiment: TLR9 inhibition reporter assay (HEK-Blue cells, SEAP reporter, ODN2006 stimulation)
Conditions: HEK-Blue cells overexpressing human TLR9, SEAP reporter, ODN2006 5 nM
pIC50: −log10 of the molar value.
Measured pIC50 values are reported for all entries that follow.

| molecule | study.system | pIC50 |
| --- | --- | --- |
| Cc1nnn2ccc(-c3[nH]c4ccc(C5CCN(Cc6ncn(C)n6)CC5)cc4c3C(C)C)cc12 [Example 889] | human TLR9 (Homo sapiens) | 4.30 to 6.00 |
| CC(C)c1c(-c2cc(CO)c3nnnn3c2)[nH]c2ccc(C3CCNCC3)cc12 [Example 71] | human TLR9 (Homo sapiens) | 4.30 to 6.00 |
| CCc1c(-c2ccnc3[nH]ncc23)[nH]c2c(F)cc(C3CCNCC3)cc12 [Example 251] | human TLR9 (Homo sapiens) | 6.00 to 7.00 |
| COC(=O)C1CC(N2CCC(c3ccc4[nH]c(-c5ccnc6[nH]ncc56)c(C(C)C)c4c3)CC2)CCN1 (centres unmarked) [Example 825] | human TLR9 (Homo sapiens) | 6.00 to 7.00 |
| CCc1c(-c2cc3ccccc3o2)[nH]c2ccc(C3CCNCC3)cc12 [Example 186] | human TLR9 (Homo sapiens) | 4.30 to 6.00 |
| C[C@@H](O)CC(=O)N1CCC(c2ccc3[nH]c(-c4cc(F)c5nccn5c4)c(CC(F)F)c3c2)CC1 [Example 603] | human TLR9 (Homo sapiens) | < 4.30 |
| CC(C)c1c(-c2cnc3nccn3c2)[nH]c2ccc(C3CCNCC3)cc12 [Example 200] | human TLR9 (Homo sapiens) | 6.00 to 7.00 |
| CC(C)c1c(-c2cc3c(s2)CNCC3)[nH]c2ccc(C3CCNCC3)cc12 [Example 207] | human TLR9 (Homo sapiens) | > 7.00 |
